# Tested on: WPMY1-CANX-COX4
# testSummary: lowest phenotypically active concentration; higher = less potent
# experimentalConditions: treatment time: 24 h
Counter-ions that a name gives are not always drawn.
measuredQuantity: lowest phenotypically active concentration

molecule | recordedResult
CC(=O)NCC(=O)N1[C@@H]2CC[C@H]1c1ccc(Nc3ncc(C(F)(F)F)c(NC4CCC4)n3)cc12 | ≤ 0.3 µM
O=C(Cc1ccc(-c2ccc(OCCN3CCOCC3)cc2)cn1)NCc1ccccc1 | ≤ 0.3 µM
CCC1(O)CC2CN(CCc3c([nH]c4ccccc34)C(C(=O)OC)(c3cc4c(cc3OC)N(C)C3C(O)(C(=O)OC)C(OC(C)=O)C5(CC)C=CCN6CCC43C65)C2)C1 (stereo not drawn) [Vinblastine sulfate] | ≤ 0.3 µM
